# target: human LPAR1 (Homo sapiens)
# Construct: host or cells: CHO-K1
# Sequence (Q92633 whole entry): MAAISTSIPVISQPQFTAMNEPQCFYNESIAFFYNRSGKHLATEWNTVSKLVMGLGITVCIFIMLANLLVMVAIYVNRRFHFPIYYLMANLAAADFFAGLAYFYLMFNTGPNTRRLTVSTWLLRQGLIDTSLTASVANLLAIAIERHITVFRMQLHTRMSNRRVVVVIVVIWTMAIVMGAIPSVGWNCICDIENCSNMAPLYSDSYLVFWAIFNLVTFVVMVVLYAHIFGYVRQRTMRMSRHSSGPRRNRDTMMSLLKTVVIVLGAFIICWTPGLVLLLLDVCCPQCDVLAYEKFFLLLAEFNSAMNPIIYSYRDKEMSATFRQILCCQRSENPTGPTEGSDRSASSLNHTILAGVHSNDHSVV
# method-notes: LPAR1 intracellular calcium mobilization assay (antagonist mode)
# Type: cell-based
# test-parameters: CHO-K1 EDG2 cells expressing human LPAR1; 60 min pre-incubation with compound (0.5 nM to 10 μM), then LPA 18:2 challenge; FLIPR Tetra calcium signal
quantity-name: EC50 (nM)

• C[C@@H](OC(=O)Nc1c(-c2ncc(NC(=O)c3cnc(C(F)F)nc3)cc2F)cnn1C)c1cc(F)cnc1F = 36.1
• C[C@@H](OC(=O)Nc1c(-c2ncc(OC(F)F)cn2)cnn1C)c1cc(F)cnc1F = 1780
• C[C@@H](OC(=O)Nc1c(-c2ncc(NC(=O)[C@@H]3C[C@H]3c3cccnc3)cn2)cnn1C)c1cc(F)cnc1F = 20.3
• Cc1nc(-c2cnn(C)c2NC(=O)O[C@H](C)c2cccnc2Cl)ncc1O = 167

A = C[C@@H](OC(=O)Nc1c(-c2ncc(NC(=O)c3cnc(C(F)(F)F)nc3)cn2)cnn1C)c1cc(F)cnc1F
B = C[C@@H](OC(=O)Nc1c(-c2ncc(NC(=O)C3(C#N)CC3)cn2)cnn1C)c1cc(F)cnc1Cl
q: # compare EC50 for A vs B ; return the one with the smaller value Your choice should be expressed through its label.
a: A
(A: 8.9 nM, B: 16.8 nM)
